IC50 reference
- study target: UniProt Q9NYK1
- Sequence (Q9NYK1 27-1049): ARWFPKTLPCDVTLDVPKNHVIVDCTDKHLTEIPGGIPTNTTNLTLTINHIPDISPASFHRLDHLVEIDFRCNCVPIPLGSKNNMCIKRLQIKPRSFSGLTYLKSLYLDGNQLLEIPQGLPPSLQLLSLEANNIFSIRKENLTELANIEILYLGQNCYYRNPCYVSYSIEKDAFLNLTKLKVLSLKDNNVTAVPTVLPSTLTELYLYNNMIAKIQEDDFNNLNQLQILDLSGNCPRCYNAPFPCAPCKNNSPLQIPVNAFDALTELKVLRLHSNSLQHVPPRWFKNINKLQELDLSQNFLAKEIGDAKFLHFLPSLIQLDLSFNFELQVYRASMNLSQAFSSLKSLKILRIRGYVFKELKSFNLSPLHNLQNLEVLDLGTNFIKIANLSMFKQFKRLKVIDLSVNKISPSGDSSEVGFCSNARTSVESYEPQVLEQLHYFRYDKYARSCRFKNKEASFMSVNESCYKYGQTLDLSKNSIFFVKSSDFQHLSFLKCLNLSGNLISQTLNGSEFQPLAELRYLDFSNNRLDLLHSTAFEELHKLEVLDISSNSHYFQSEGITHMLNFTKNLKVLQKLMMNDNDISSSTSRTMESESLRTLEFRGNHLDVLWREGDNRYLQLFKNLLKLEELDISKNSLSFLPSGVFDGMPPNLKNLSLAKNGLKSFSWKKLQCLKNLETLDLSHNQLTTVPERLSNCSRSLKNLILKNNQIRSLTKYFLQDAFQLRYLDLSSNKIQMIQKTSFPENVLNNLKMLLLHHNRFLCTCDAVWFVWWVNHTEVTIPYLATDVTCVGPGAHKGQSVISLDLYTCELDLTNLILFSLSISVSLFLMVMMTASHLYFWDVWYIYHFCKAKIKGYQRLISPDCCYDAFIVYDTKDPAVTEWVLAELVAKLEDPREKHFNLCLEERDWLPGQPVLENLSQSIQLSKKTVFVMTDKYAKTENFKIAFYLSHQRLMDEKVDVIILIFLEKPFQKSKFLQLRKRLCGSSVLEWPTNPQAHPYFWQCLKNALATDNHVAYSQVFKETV
- experimental details: HEK293-Blue-hTLR-7 cells assay (SEAP reporter, R848 stimulation)
- test context: HEK293-Blue-hTLR7 cells, R848, 20 hrs; read-out: HEK/hTLR7 IC50
Express the reported value numerically, then name its unit.

Some compounds with recorded IC50:
{"columns": ["given smiles", "readout kind", "measured value"],
 "data": [
  ["C[C@@H]1CN(c2ccc(C#N)c3ncccc23)C[C@H](CN2CCN(c3ncc(C#N)c(N4CCNCC4)n3)CC2)O1", "IC50", "28 nM"],
  ["C[C@@H]1CN(c2ccc(C#N)c3ncccc23)C[C@H](CN2CCN(c3ccnc(N4C[C@@H](F)[C@@H](N)C4)n3)CC2)O1", "IC50", "7 nM"],
  ["C[C@@H]1CN(c2cc(=O)n(C)c3ncccc23)C[C@H](CN2CC(c3ccc(N4CCNCC4)cc3)C2)O1", "IC50", "38 nM"],
  ["Cc1ccc(N2C[C@H](CN3CCN(c4nccc(N5CCNCC5)n4)CC3)O[C@H](C)C2)c2nccnc12", "IC50", "21 nM"],
  ["[2H]c1ccc2c(N3C[C@H](CN4CCN(c5ncc(N6CC(C)(N)C6)cc5C)CC4)O[C@H](C)C3)ccc(C#N)c2n1", "IC50", "20 nM"]
]}

Annotate the compound C[C@@H]1CN(c2ccc(C#N)c3ncccc23)C[C@H](CN2CCN(c3nc(N4CCNCC4)ncc3C#N)CC2)O1 with its measured IC50.
16 nM

Annotate the compound C[C@@H]1CN(c2ccc(C#N)c3ncccc23)C[C@H](CN2CCN(c3cc(N4CCNCC4)ccn3)CC2)O1 with its measured IC50.
19 nM
